Data provenance is ChEMBL document CHEMBL1153405.

measurement.target: Neuronal acetylcholine receptor; alpha4/beta2 (Homo sapiens, UniProt P17787+P43681)
Sequence (P17787 whole entry): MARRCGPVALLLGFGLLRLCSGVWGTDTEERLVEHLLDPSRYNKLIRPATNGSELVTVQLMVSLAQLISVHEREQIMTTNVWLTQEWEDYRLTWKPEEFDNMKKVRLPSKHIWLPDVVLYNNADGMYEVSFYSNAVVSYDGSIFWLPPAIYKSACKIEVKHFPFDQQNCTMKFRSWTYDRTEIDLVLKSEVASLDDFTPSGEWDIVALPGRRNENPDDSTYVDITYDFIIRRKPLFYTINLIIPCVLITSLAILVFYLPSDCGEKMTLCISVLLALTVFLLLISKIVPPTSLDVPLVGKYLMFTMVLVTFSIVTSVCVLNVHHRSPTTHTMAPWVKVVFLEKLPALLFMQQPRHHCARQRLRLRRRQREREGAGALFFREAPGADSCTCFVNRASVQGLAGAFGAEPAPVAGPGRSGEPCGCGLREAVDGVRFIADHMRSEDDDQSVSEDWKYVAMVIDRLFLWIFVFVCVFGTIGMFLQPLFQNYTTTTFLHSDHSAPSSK
Sequence (P43681 whole entry): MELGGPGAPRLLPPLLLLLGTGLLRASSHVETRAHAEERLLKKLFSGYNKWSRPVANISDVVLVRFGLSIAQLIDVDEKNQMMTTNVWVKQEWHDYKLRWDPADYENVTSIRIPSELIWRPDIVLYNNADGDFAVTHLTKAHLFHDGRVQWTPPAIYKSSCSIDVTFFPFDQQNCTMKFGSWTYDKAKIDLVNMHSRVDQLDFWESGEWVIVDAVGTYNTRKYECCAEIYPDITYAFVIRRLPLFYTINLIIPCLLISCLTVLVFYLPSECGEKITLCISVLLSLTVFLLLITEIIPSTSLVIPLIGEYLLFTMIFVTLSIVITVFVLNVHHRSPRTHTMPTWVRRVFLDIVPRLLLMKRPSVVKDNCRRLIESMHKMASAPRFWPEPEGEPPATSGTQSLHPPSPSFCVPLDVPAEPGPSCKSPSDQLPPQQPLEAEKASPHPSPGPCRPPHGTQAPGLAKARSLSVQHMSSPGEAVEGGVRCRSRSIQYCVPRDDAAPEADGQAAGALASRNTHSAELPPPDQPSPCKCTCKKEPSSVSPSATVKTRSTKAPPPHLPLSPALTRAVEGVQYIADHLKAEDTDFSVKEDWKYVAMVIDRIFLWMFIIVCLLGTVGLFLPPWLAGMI
procedure.summary: Agonist activity at human alpha4beta2 nAChR expressed in HEK293 cells assessed as intracellular calcium level by FLIPR assay
attribute.measured: EC50 (µM)

[[record]]
compound = "Brc1ccc(N2CCCNCCC2)cn1"
observed_measurement = 0.00129

[[record]]
compound = "Brc1ccc(N2CCNCC2)cn1"
observed_measurement = 2.51

[[record]]
compound = "Clc1cncc(OC2CCCNC2)c1 (stereo not given)"
observed_measurement = 1.41

[[record]]
compound = "COc1cc(N2CCCNCC2)cnc1Cl"
observed_measurement = 0.0912

[[record]]
compound = "Clc1cncc(N2CCNCC2)c1"
observed_measurement = 22.9

[[record]]
compound = "C=COc1cc(N2CCCNCC2)cnc1Br"
observed_measurement = 0.11

[[record]]
compound = "Clc1cncc(N2CCCNCCC2)c1"
observed_measurement = 0.17

[[record]]
compound = "C1=C(c2cccnc2)CC2CCC1N2 (stereo not given)"
observed_measurement = 1

[[record]]
compound = "c1cncc(N2CCCNCC2)c1"
observed_measurement = 0.229

[[record]]
compound = "Oc1cncc(N2CCCNCC2)c1"
observed_measurement = 0.141

[[record]]
compound = "c1ccc2ncc(N3CCCNCC3)cc2c1"
observed_measurement = 3.63

[[record]]
compound = "COc1cncc(N2CCCNCCC2)c1"
observed_measurement = 0.12

[[record]]
compound = "NC(=O)c1cncc(N2CCCNCC2)c1"
observed_measurement = 12.9

[[record]]
compound = "COCCOc1cncc(N2CCCNCC2)c1"
observed_measurement = 8.71

[[record]]
compound = "Oc1cc(N2CCCNCC2)cnc1I"
observed_measurement = 0.479

